biological target: JAK3 (Homo sapiens, UniProt P52333); construct: 5 μl of catalytic domain recombinant Kinase enzyme+Tyr peptide substrate (Invitrogen, CA); test: Z'-LYTE kinase assay JAK3
Sequence (P52333 822-1111 limits assumed): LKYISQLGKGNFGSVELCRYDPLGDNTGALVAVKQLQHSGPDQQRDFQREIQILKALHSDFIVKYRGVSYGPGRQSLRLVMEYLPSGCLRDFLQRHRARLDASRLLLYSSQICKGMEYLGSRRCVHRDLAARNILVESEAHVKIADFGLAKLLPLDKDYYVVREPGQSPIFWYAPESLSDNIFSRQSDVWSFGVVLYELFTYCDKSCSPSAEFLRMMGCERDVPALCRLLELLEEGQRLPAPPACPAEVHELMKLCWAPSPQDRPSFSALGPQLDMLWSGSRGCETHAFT
pIC50: −log10 of the molar value.
quantity: pIC50

>>> datavalue("CS(=O)(=O)N1CCN(c2ccc(Nc3cc(NC4(c5ccccc5)CC4)c(C(N)=O)cn3)cc2)CC1")
"7.00 to 8.00"
>>> datavalue("COC[C@@H](Nc1cc(Nc2ccc(C(=O)N3CCC3)cc2)ncc1C(N)=O)c1ccccc1")
"7.00 to 8.00"
>>> datavalue("CN(C)C(=O)c1ccc(Nc2cc(NCc3ccccc3)c(C(N)=O)cn2)cc1C(F)(F)F")
"7.00 to 8.00"
>>> datavalue("CC(=O)Nc1cccc(Nc2nc(NC3CCCC3)c(C(N)=O)cc2F)c1")
"< 6.00"
>>> datavalue("COC(=O)N(C)c1ccc(Nc2cc(NCc3cccc4[nH]ccc34)c(C(N)=O)cn2)cc1")
"8.00 to 9.00"
>>> datavalue("CCC(=O)N(C)c1ccc(Nc2cc(NCc3cccc4[nH]ccc34)c(C(N)=O)cn2)cc1")
"8.00 to 9.00"
>>> datavalue("CCC(=O)N1CCC(c2ccc(Nc3cc(NCc4cnn(C)c4)c(C(N)=O)cn3)cc2)CC1")
"6.00 to 7.00"
>>> datavalue("NC(=O)c1cnc(Nc2cccc(F)c2)cc1NCc1cncc(F)c1")
"7.00 to 8.00"
>>> datavalue("COc1ccc(Nc2cc(NCc3cncnc3)c(C(N)=O)cn2)cc1")
"6.00 to 7.00"

---

target: JAK1 (Homo sapiens); construct: 5 μl of catalytic domain recombinant Kinase enzyme+Tyr peptide substrate (Invitrogen, CA); assay: Z'-LYTE kinase assay JAK1
pIC50: −log10 of the molar value.
quantity: pIC50

>>> datavalue("NC(=O)c1cnc(Nc2cccc(OCCN3CCOCC3)c2)cc1NCc1cccc(F)c1 [Example 228]")
"6.00 to 7.00"
>>> datavalue("NC(=O)c1cnc(Nc2ccc(C3CCN(C4CCCC4)CC3)cc2)cc1NCc1ccccc1F [Example 109]")
"6.00 to 7.00"
>>> datavalue("NC(=O)c1cnc(Nc2ccc(N3CCC(F)(F)CC3)cc2)cc1NC1(c2ccccc2)CC1 [Example 131]")
"< 6.00"
>>> datavalue("CC(=O)N1CCN(c2ccc(Nc3cc(NCc4ccc(F)cc4)c(C(N)=O)cn3)cc2)CC1 [Example 252]")
"< 6.00"

---

Measured pIC50, listed per entry.
biological target: JAK1 (Homo sapiens); construct: 5 μl of catalytic domain recombinant Kinase enzyme+Tyr peptide substrate (Invitrogen, CA); test: Z'-LYTE kinase assay JAK1
pIC50: −log10 of the molar value.
quantity: pIC50

>>> datavalue("NC(=O)c1cnc(Nc2ccc(C3CCOCC3)cc2)cc1NCc1cccnc1 [Example 185]")
"6.00 to 7.00"
>>> datavalue("NC(=O)c1cnc(Nc2ccc(OCCN3CCCCC3)cc2)cc1NCc1ccccc1 [Example 81]")
"< 6.00"
>>> datavalue("NC(=O)c1cnc(Nc2ccc(N3CCCCC3=O)cc2)cc1NCc1ccccc1F [Example 71]")
"6.00 to 7.00"
>>> datavalue("CCC(=O)N(C)c1ccc(Nc2cc(NCc3cncc(F)c3)c(C(N)=O)cn2)cc1 [Example 480]")
"< 6.00"

---

Measured pIC50, listed per entry.
target: JAK1 (Homo sapiens); construct: 5 μl of catalytic domain recombinant Kinase enzyme+Tyr peptide substrate (Invitrogen, CA); purchased Invitrogen; assay: Z'-LYTE kinase assay JAK1; assay type: biochemical
pIC50: −log10 of the molar value.
quantity: pIC50

>>> datavalue("CCC(=O)N1CCC(c2ccc(Nc3cc(NC4CCCC4)c(C(N)=O)cn3)cc2)CC1 [Example 147]")
"6.00 to 7.00"
>>> datavalue("CC(=O)N1CCN(c2cccc(N(C(C)=O)c3cc(NC4(c5ccccc5)CC4)c(C(N)=O)cn3)c2)CC1 [Example 372]")
"< 6.00"
>>> datavalue("CN(C)C(=O)c1ccc(Nc2cc(NCc3cc(F)ccc3F)c(C(N)=O)cn2)cc1 [Example 92]")
"6.00 to 7.00"

---

Measured pIC50, listed per entry.
target: JAK1 (Homo sapiens, UniProt P23458); construct: 5 μl of catalytic domain recombinant Kinase enzyme+Tyr peptide substrate (Invitrogen, CA); assay: Z'-LYTE kinase assay JAK1
Sequence (P23458 875-1153 limits assumed): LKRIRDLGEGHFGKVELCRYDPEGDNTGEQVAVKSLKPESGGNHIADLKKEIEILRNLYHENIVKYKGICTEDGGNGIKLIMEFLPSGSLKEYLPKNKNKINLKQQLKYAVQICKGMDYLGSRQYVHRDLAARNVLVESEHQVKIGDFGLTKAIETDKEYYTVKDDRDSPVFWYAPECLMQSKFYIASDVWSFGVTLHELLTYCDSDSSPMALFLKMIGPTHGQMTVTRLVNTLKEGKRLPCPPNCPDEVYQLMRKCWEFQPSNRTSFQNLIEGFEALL
pIC50: −log10 of the molar value.
quantity: pIC50

>>> datavalue("CCS(=O)(=O)N1CCC(Nc2cc(Nc3ccc(C4CCOCC4)cc3)ncc2C(N)=O)CC1")
"< 6.00"
>>> datavalue("COC(=O)N(C)c1ccc(Nc2cc(NCc3cccc4ccsc34)c(C(N)=O)cn2)cc1")
"< 6.00"
>>> datavalue("CC(=O)N1CCN(c2ccc(Nc3cc(NCc4cccc(Cl)c4)c(C(N)=O)cn3)cc2)CC1")
"6.00 to 7.00"
>>> datavalue("NC(=O)c1cnc(Nc2ccc(C3CCOCC3)cc2)cc1NCc1nccs1")
"6.00 to 7.00"
>>> datavalue("CN(C)C(=O)N1CC(c2ccc(Nc3cc(NCc4ccccc4)c(C(N)=O)cn3)cc2)C1")
"6.00 to 7.00"
>>> datavalue("CC(=O)N1CCN(c2cccc(Nc3cc(NC4(c5ccccc5)CC4)c(C(N)=O)cn3)c2)CC1")
"< 6.00"
>>> datavalue("C[C@@H](Nc1cc(Nc2ccc(C3CCOCC3)cc2)ncc1C(N)=O)C(C)(C)C")
"6.00 to 7.00"
>>> datavalue("NC(=O)c1cnc(Nc2ccc(C(=O)NCC(F)(F)F)cc2)cc1NCc1cncc(F)c1")
"6.00 to 7.00"
>>> datavalue("CN(C)C(=O)NCc1ccc(Nc2cc(NCc3cccc4ccsc34)c(C(N)=O)cn2)cc1")
"6.00 to 7.00"
>>> datavalue("CCC(=O)N1CCC(c2ccc(Nc3cc(NCC4(O)CCCC4)c(C(N)=O)cn3)cc2)CC1")
"< 6.00"
>>> datavalue("CC(=O)Nc1ccc(Nc2cc(NCc3cccc4ccsc34)c(C(N)=O)cn2)cc1")
"7.00 to 8.00"
>>> datavalue("NC(=O)c1cnc(Nc2cccc(OCCN3CCCC3)c2)cc1NC1(c2ccccc2)CC1")
"< 6.00"
>>> datavalue("CN(C)C(=O)c1ccc(Nc2cc(NCC3CCCC3)c(C(N)=O)cn2)cc1")
"6.00 to 7.00"
>>> datavalue("NC(=O)c1cnc(Nc2ccc(C3CCOCC3)cc2)cc1NCc1ccccc1F")
"< 6.00"
>>> datavalue("CN(C)S(=O)(=O)N(C)c1ccc(Nc2cc(NCc3ccccc3)c(C(N)=O)cn2)cc1")
"6.00 to 7.00"
>>> datavalue("CC(=O)N1CC(c2ccc(Nc3cc(NCc4cccc5ccsc45)c(C(N)=O)cn3)cc2)C1")
"6.00 to 7.00"
>>> datavalue("CCC(=O)N(C)c1ccc(Nc2cc(NCc3cccc(F)n3)c(C(N)=O)cn2)cc1")
"6.00 to 7.00"
>>> datavalue("NC(=O)c1cnc(Nc2ccc(N3CCOCC3)cc2)cc1NCc1ccccc1F")
"6.00 to 7.00"
>>> datavalue("NC(=O)c1cnc(Nc2ccc(N3CCCC3=O)c(Cl)c2)cc1NCc1cccc(F)c1")
"6.00 to 7.00"
>>> datavalue("NC(=O)c1cnc(Nc2ccc(C3CCOCC3)cc2)cc1NCc1ncccn1")
"< 6.00"
>>> datavalue("CCC(=O)N1CC(c2ccc(Nc3cc(NCc4cccc5ccsc45)c(C(N)=O)cn3)cc2)C1")
"6.00 to 7.00"
>>> datavalue("CCS(=O)(=O)N1CCC(CNc2cc(Nc3ccc(C4CCOCC4)cc3)ncc2C(N)=O)CC1")
"< 6.00"
>>> datavalue("NC(=O)c1cnc(Nc2ccc(-n3cccn3)nc2)cc1NCc1ccccc1")
"< 6.00"
>>> datavalue("CC(=O)N(C)c1ccc(Nc2cc(NC3(c4ccccc4)CC3)c(C(N)=O)cn2)cc1")
"< 6.00"
>>> datavalue("NC(=O)c1cnc(Nc2ccc(-c3nc[nH]n3)cc2)cc1NCc1ccccc1")
"6.00 to 7.00"
>>> datavalue("NC(=O)c1cnc(Nc2ccc(CN3CCOCC3)cc2)cc1NCc1ccccc1")
"< 6.00"
>>> datavalue("COc1cc(Nc2cc(NC[C@H]3CCCN(C(C)=O)C3)c(C(N)=O)cn2)ccc1C(=O)N(C)C")
"< 6.00"

---

molecular target: JAK2 (Homo sapiens); construct: 5 μl of catalytic domain recombinant Kinase enzyme+Tyr peptide substrate (Invitrogen, CA); test: Z'-LYTE kinase assay JAK2
Sequence (O60674 849-1124 limits assumed): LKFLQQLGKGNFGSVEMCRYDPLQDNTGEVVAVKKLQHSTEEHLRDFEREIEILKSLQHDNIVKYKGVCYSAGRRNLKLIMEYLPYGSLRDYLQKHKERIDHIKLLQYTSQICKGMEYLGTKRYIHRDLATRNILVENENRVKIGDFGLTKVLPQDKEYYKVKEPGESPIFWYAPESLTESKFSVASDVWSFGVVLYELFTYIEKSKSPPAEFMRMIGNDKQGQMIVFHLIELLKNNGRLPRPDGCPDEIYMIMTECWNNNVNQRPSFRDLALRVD
quantity: IC50

>>> datavalue("NC(=O)c1cnc(Nc2cccc(C3CCOCC3)c2)cc1NCc1cncc(F)c1 [Example 208]")
"0.01 to 0.1 µM"
>>> datavalue("CN(C)C(=O)c1ccc(Nc2cc(NCc3cccc4ccn(C)c34)c(C(N)=O)cn2)cc1 [Example 318]")
"0.1 to 1 µM"
>>> datavalue("Cc1cc(Nc2cc(NCc3cccc4[nH]ccc34)c(C(N)=O)cn2)ccc1C(=O)N1CCCC1 [Example 461]")
"< 0.001 µM"
>>> datavalue("NC(=O)c1cnc(Nc2cccc(C3CCOCC3)c2)cc1NCc1ccccc1F [Example 152]")
"0.01 to 0.1 µM"
>>> datavalue("CN(C)C(=O)N1CC(c2ccc(Nc3cc(NCc4ccccc4)c(C(N)=O)cn3)cc2)C1 [Example 337]")
"0.1 to 1 µM"
>>> datavalue("CC(=O)N1CCC[C@H](CNc2cc(Nc3ccc(C(=O)N(C)C)c(Cl)c3)ncc2C(N)=O)C1 [Example 442]")
"0.1 to 1 µM"
>>> datavalue("CCC(=O)N1CCC(c2ccc(Nc3cc(NCc4cnn(C)c4)c(C(N)=O)cn3)cc2)CC1 [Example 178]")
"> 1 µM"
